All values here come from paper PMC10402266.

target: PfAsnRS (Plasmodium falciparum cytoplasmic asparaginyl tRNA synthetase) (Plasmodium falciparum, UniProt O96198, R487S); construct: gene PF3D7_0211800; recombinant PfAsnRSR487S; test: ATP consumption assay of recombinant mutant enzyme with tRNA; type: biochemical
Sequence (O96198 entry or part of it): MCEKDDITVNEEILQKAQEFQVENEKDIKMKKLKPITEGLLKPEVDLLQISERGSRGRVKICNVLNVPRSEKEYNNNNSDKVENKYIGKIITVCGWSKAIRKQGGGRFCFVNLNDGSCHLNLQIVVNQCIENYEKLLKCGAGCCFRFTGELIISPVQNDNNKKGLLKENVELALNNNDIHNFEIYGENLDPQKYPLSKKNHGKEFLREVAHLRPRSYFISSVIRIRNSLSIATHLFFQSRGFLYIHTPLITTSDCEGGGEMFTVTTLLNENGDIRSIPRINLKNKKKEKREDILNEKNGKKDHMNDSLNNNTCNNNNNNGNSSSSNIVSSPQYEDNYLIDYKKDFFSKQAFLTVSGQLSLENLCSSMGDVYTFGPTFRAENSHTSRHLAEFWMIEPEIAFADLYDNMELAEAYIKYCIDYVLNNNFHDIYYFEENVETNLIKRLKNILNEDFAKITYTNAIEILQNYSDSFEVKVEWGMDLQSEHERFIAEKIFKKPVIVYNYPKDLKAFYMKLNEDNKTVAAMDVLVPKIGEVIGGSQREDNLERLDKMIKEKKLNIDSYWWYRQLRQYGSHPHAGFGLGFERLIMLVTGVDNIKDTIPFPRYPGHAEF
Measured metric: pIC50
Please keep in mind that pIC50 is minus log10 of the molar concentration; only the number is needed.

Input: Tell us which pIC50 value is on record for Nc1ncnc2cc(-c3cccc(S(N)(=O)=O)c3)sc12 [OSM-S-106]
Output: 4.58

###

molecular target: PfAsnRS (Plasmodium falciparum cytoplasmic asparaginyl tRNA synthetase) (Plasmodium falciparum); construct: gene PF3D7_0211800; recombinant wildtype PfAsnRS, His-tag removed; experiment: ATP consumption assay of recombinant enzyme with tRNA; Asn adduct found by LC-MS; type: biochemical
Measured metric: IC50 (µM)
// units = µM; emit number, no label

Input: Tell us which IC50 value is on record for `Nc1ncnc2cc(-c3cccc(S(N)(=O)=O)c3)sc12`
Output: 3.6
